Attribution: patent EP0292169B1

assay-text: Molar absorptivity of phenolic precursors of substrates
Assay type: physicochemical
assay-context: 405 nm, pH 7.5
quantity-measured: Molar Absorptivity (εmax)

Quick note, Molar Absorptivity (εmax) for O=[N+]([O-])c1cccc(Cl)c1O landed at 4.6 (405 nm, pH 7.5)

Quick note, Molar Absorptivity (εmax) for O=[N+]([O-])c1ccccc1O [ONP, orthonitro phenol, reference compound] landed at 3.0 (405 nm, pH 7.5)

Quick note, Molar Absorptivity (εmax) for O=[N+]([O-])c1ccc(O)c(Cl)c1 landed at 16.9 (405 nm, pH 7.5)

Quick note, Molar Absorptivity (εmax) for O=[N+]([O-])c1cc(Cl)c(O)c(Cl)c1 landed at 15.9 (405 nm, pH 7.5)
